Cited source for all entries: PubChem BioAssay AID463082

Known inhibition of a selection of compounds
# Target entity: Platelet-activating factor acetylhydrolase (Homo sapiens)
# Assay notes: pPAFAH enzyme inhibitors, primary screen, biochemical, fluorescence polarization, human (AID 463082);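 also: inhibitors block binding of the rhodamine activity-based probe so polarization drops; 0% = enzyme with DMSO and 100% = wells lacking pPAFAH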
# Test context: recombinant pPAFAH, FP-rhodamine probe fluorescence polarization; at 3.39 µM; hits give high values
The campaign covered roughly 330,000 compounds. About 4,900 (1.5%) were called active. The list comes from a sample in which actives are over-represented; it also holds close analogues and randomly drawn compounds.

# Compound, Target entity, inhibition [%]
data = [
    ("O=C(OCC1O[C@@H](OC(=O)c2cc(O)c(O)c(O)c2)[C@@H](OC(=O)c2cc(O)c(O)c(O)c2)[C@@H](OC(=O)c2cc(O)c(O)c(O)c2)[C@@H]1OC(=O)c1cc(O)c(O)c(O)c1)c1cc(O)c(O)c(O)c1 (some centres undefined)", "Platelet-activating factor acetylhydrolase (Homo sapiens)", 73),
    ("Cc1cc(C)c2nc(SCC(=O)N(C)C3CCS(=O)(=O)C3)cc(C)c2c1 (centres undefined)", "Platelet-activating factor acetylhydrolase (Homo sapiens)", 4.97),
    ("O=C(NCCN1CCOC1=O)C1CCC(=O)N(CCc2ccc(Cl)cc2)C1 (centres undefined)", "Platelet-activating factor acetylhydrolase (Homo sapiens)", 6.31),
    ("CCOC(=O)c1ccc2c(c1)nc(SCC(=O)NC(C)C)n2CC", "Platelet-activating factor acetylhydrolase (Homo sapiens)", 3.79),
    ("CNC(=S)N/N=C/c1cn(Cc2ccc(C)cc2)c2ccccc12", "Platelet-activating factor acetylhydrolase (Homo sapiens)", 18.1),
    ("O=[N+]([O-])c1cc(S(=O)(=O)CCCN2CCOCC2)ccc1F", "Platelet-activating factor acetylhydrolase (Homo sapiens)", 0.16),
    ("Cc1ccc(NC(=O)c2csc3c2CCCC3)cc1", "Platelet-activating factor acetylhydrolase (Homo sapiens)", 1.78),
    ("O=C(COC(=O)COc1cccc(F)c1)NCC1CCCCC1", "Platelet-activating factor acetylhydrolase (Homo sapiens)", 7.16),
    ("CC1CC1C(=O)OCC(=O)Nc1cccc(F)c1 (centres undefined)", "Platelet-activating factor acetylhydrolase (Homo sapiens)", 13.3),
    ("Cc1ccc(-c2cc(C(=O)NCc3cn(C)nc3C)c3cc(Br)ccc3n2)cc1", "Platelet-activating factor acetylhydrolase (Homo sapiens)", 2.72),
    ("CCOC(=O)N/N=C/c1cn(Cc2ccccc2Cl)c2ccccc12", "Platelet-activating factor acetylhydrolase (Homo sapiens)", 30.1),
    ("Cc1ccc(S(=O)(=O)N2CCCCC2)cc1NC(=O)[C@@H]1CCCN1C(=O)c1cccs1", "Platelet-activating factor acetylhydrolase (Homo sapiens)", 4.96),
    ("CC(C)CC(=O)Nc1cc(C(F)(F)F)ccc1N1CCOCC1", "Platelet-activating factor acetylhydrolase (Homo sapiens)", -1.9),
    ("Cc1ccsc1C(=O)OCC(=O)NCCc1ccccc1", "Platelet-activating factor acetylhydrolase (Homo sapiens)", 2.4),
    ("Cc1ccc(C)c(NS(=O)(=O)c2ccc(OCC(=O)NCc3cccnc3)cc2)c1", "Platelet-activating factor acetylhydrolase (Homo sapiens)", 26.4),
    ("OCCC1CN(Cc2cccc(O)c2)CCN1CCc1ccccc1 (centres undefined)", "Platelet-activating factor acetylhydrolase (Homo sapiens)", -5.11),
    ("COC(=O)c1c(NC(=O)CCN2CCOCC2)sc2c1CCCC2", "Platelet-activating factor acetylhydrolase (Homo sapiens)", 7.3),
    ("c1ccc(C2CCC(N3CCC(N4CCCCC4)CC3)CC2)cc1 (centres undefined)", "Platelet-activating factor acetylhydrolase (Homo sapiens)", 4.58),
    ("O=C(CN1C(=O)NC2(CCCC2)C1=O)Nc1cc(C(F)(F)F)ccc1N1CCOCC1", "Platelet-activating factor acetylhydrolase (Homo sapiens)", 6.53),
]
